Assay: inhibitors of TNFa-induced NFkB p65 translocation, primary screen, imaging, HUVEC, MLSMR starter and 10KST1 sets (AID 438);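 also: compound added about 3h40 before a 20 min TNFalpha stimulation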
Conditions: HUVEC TNFa-induced p65 nuclear translocation; measured here: nuclei count (cytotoxicity indicator), at 2.08 µM
Tag: rule met if measured cell count is not below 500, rule not met if it is.

Answered cases to consult:
Could you please find out whether CCCC(=O)Nc1c2c(nn1-c1ccc(OC)cc1)CS(=O)C2 (stereo unspecified) has cell count that meets 500 or exceeds it? rule not met

Could you tell me if the measured cell count of CC(=O)OCC1OC(c2ccccc2)C(OC(C)=O)C(OC(C)=O)C1OC(C)=O (stereo unspecified) reaches 500 or more? rule not met

More entries:
Quick check, cell count >= 500? Nc1nc2n(n1)C(c1ccc(F)cc1)CC(c1ccc(F)cc1)N2 (stereo unspecified) rule not met

Hi team, for "CCOc1ncccc1C(=O)Nc1ccc(Cl)cc1" , is the recorded cell count at or above 500? rule met

State whether the measured cell count reaches 500, counting equality as reaching it, for "CC(NC(=O)Nc1ccc(O)cc1)(C(F)(F)F)C(F)(F)F" rule met
